# testedOn: Metabotropic glutamate receptor 2 (Homo sapiens, UniProt Q14416)
# Sequence (Q14416 whole entry): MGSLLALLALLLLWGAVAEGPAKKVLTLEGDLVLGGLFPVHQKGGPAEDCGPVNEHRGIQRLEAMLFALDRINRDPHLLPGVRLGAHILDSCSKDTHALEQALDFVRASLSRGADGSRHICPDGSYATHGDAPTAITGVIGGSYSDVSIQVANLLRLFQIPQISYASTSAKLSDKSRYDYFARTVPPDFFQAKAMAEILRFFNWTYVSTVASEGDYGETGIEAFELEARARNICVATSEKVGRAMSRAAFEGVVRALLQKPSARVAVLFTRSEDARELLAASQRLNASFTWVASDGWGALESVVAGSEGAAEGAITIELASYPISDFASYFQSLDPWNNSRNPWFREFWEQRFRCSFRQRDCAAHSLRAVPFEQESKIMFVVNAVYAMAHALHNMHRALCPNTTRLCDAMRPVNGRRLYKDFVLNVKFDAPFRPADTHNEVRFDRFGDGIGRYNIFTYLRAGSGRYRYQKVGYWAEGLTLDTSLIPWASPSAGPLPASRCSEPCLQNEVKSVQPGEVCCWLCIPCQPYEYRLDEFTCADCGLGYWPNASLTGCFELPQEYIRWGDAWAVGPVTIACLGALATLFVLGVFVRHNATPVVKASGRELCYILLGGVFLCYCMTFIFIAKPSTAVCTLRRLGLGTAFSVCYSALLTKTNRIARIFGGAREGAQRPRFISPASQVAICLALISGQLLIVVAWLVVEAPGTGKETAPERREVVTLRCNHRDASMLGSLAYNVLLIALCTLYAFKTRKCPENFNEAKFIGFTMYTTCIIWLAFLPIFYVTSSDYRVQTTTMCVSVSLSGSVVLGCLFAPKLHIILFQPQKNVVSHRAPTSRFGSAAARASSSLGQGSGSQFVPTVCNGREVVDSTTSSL
# experiment: Antagonist activity at recombinant human mGlu2 receptor expressed in hamster AV12 cells co-expressing human EAAT1 assessed as reduction of DCG-4-inhibited forskolin-stimulated cAMP formation after 20 mins by HTRF assay
pIC50: −log10 of the molar value.
measuredMetric: pIC50

[P] N[C@]1(C(=O)O)[C@@H]2[C@@H](C(=O)O)[C@@H]2[C@@H](O)[C@H]1OCc1ccc(Cl)cc1
[Q] [N-]=[N+]=N[C@H]1[C@H]2[C@H](C(=O)O)[C@H]2[C@](N)(C(=O)O)[C@@H]1OCc1ccc(Cl)c(Cl)c1
*Q* Quick one: lower pIC50, P or Q ? Which one? Tell me its label.
*A* P
(P: 6.68, Q: 7.46)

[a] N[C@]1(C(=O)O)[C@@H]2[C@@H](C(=O)O)[C@@H]2[C@@H](O)[C@H]1OCc1cccc(Cl)c1
[b] N[C@]1(C(=O)O)[C@@H]2[C@@H](C(=O)O)[C@@H]2[C@@H](O)[C@H]1OCc1ccc(Cl)c(Cl)c1
[c] CC(=O)N[C@H]1[C@H]2[C@H](C(=O)O)[C@H]2[C@](N)(C(=O)O)[C@@H]1OCc1ccc(Cl)c(Cl)c1
[d] N[C@]1(C(=O)O)[C@@H]2[C@@H](C(=O)O)[C@@H]2[C@H](Sc2nc[nH]n2)[C@H]1OCc1ccc(Cl)c(Cl)c1
[e] N[C@]1(C(=O)O)[C@@H]2[C@@H](C(=O)O)[C@@H]2[C@H](O)[C@H]1OCc1ccc(Cl)c(Cl)c1
*Q* Provide the items ranked by increasing pIC50. Reply with the item labels sorted in the order that was asked for.
*A* a, b, e, c, d
